Listed molecules paired with reported Kb
- System Name: rabbit aortic rings (Oryctolagus cuniculus, UniProt P34976)
- Construct: The thoracic aorta was removed, cleaned of adherent fat and connective tissue and then cut into 3-mm ring segments; from tissue; host or cells: rabbit thoracic aorta rings, endothelium removed
- Sequence (P34976 whole entry): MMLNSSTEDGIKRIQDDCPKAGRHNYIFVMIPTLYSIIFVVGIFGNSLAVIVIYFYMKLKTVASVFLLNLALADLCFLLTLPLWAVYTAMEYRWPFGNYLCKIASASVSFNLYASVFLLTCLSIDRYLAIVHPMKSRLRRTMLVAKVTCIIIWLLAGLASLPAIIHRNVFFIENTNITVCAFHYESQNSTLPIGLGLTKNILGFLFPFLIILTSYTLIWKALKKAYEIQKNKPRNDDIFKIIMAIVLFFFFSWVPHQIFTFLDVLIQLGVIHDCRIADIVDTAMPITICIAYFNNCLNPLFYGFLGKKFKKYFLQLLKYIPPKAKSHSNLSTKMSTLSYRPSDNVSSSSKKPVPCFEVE
- Measurement Protocol: Assay B: In Vitro Vascular Smooth Muscle Response for AII
- Set-up: species or system rabbit (male New Zealand white)
- Measurement Conditions: rabbit aorta rings, two rabbits per antagonist; antagonist 10^-5 M, 5 minutes; AII contraction; Schild; read-out: pA2 (first of two values) (converted)
# number only, unit nM dropped from output

Reference set, count: 5
Smiles Entry	System Name	Kb [nM]
CCCCCn1nc(CCCC)nc1Cc1ccc(-c2ccccc2-c2nnn[nH]2)nc1	rabbit aortic rings (Oryctolagus cuniculus, UniProt P34976)	25.1
CCCCn1nc(C(OC(C)C)OC(C)C)nc1Cc1ccc(-c2ccccc2-c2nnn[nH]2)nc1	rabbit aortic rings (Oryctolagus cuniculus, UniProt P34976)	28.8
CCCCn1nc(CCc2ccccc2)nc1Cc1ccc(-c2ccccc2-c2nnn[nH]2)nc1	rabbit aortic rings (Oryctolagus cuniculus, UniProt P34976)	17.4
CCCCn1nc(/C=C/c2cccs2)nc1Cc1ccc(-c2ccccc2-c2nnn[nH]2)nc1	rabbit aortic rings (Oryctolagus cuniculus, UniProt P34976)	6.46
CCCCc1nc(Cc2ccc(-c3ccccc3-c3nnn[nH]3)nc2)n(CCCC)n1	rabbit aortic rings (Oryctolagus cuniculus, UniProt P34976)	9.33

// next item, Kb requested
// query Quick one: Kb of CCCCc1nc(Cc2ccc(-c3ccccc3-c3nnn[nH]3)nc2)n(CC(C)(C)C)n1 ?
// result 166
